Can you tell me growth for the items I'm about to list?
test system: E. coli TESEC Alr+ wild-type control; assay: growth (OD600 after 10 h); higher = more growth (less inhibition); details: compound 0.1 mM; raw OD600 reference: median of DMSO wells 0.241, cell-free background 0.041
Structures can show the parent of a compound that is named as a salt.

The examples below pair each entry with its known result.
{"columns": ["compound", "growth"],
 "data": [
  ["CCCNC(C)(C)COC(=O)c1ccccc1 [Meprylcaine hydrochloride]", 0.234],
  ["CC(C)(C)C(=O)OCOC(=O)[C@@H]1N2C(=O)[C@@H](NC(=O)[C@H](N)c3ccccc3)[C@H]2SC1(C)C", 0.26],
  ["CC(=O)NCCCS(=O)(=O)O [Acamprosate calcium]", 0.233]
]}

In the following, a different compound is considered.
Prompt line: Name the recorded growth for "CCC(=O)O[C@@H](O[P@](=O)(CCCCc1ccccc1)CC(=O)N1C[C@H](C2CCCCC2)C[C@H]1C(=O)O)C(C)C" .
Response line: 0.221

----------
system: E. coli TESEC Mtb Alr; experiment: growth (OD600 after 10 h); higher = more growth (less inhibition); details: arabinose 10000000 nM; compound 0.1 mM; raw OD600 reference: median of DMSO wells […], cell-free background 0.052
Where a name gives a salt, the structure may show the parent alone.
measured property: growth

The examples below pair each entry with its known result.
{"columns": ["compound", "growth"],
 "data": [
  ["Cc1c(Nc2ncccc2C(=O)O)cccc1C(F)(F)F [Flunixin meglumine]", 0.146],
  ["NS(=O)(=O)c1cc2c(cc1Cl)NC(C(Cl)Cl)NS2(=O)=O (centres undefined) [Trichlormethiazide]", 0.357],
  ["C=CCOc1ccccc1OCC(O)CNC(C)C (centres undefined) [Oxprenolol hydrochloride]", 0.357]
]}

# return growth for each item in the list
1. C=CCSCC1Nc2cc(Cl)c(S(N)(=O)=O)cc2S(=O)(=O)N1 (centres undefined) [Althiazide]
2. Nc1c2c(nc3ccccc13)CCCC2 [Tacrine hydrochloride]
3. C#CCN[C@@H]1CCc2ccccc21 [Rasagiline]
4. CCc1cc(C(N)=S)ccn1 [Ethionamide]
5. COc1ccc(CN(CCN(C)C)c2ccccn2)cc1 [Pyrilamine maleate]

Response line:
1: 0.326; 2: 0.37; 3: 0.322; 4: 0.334; 5: 0.321

# return growth for each item in the list
1. CC(Cc1cccc(C(F)(F)F)c1)NCCOC(=O)c1ccccc1 (centres undefined) [Benfluorex]
2. CCCCOC(=O)c1ccc(O)cc1 [Butylparaben]
3. CN(C)CCN(Cc1cccs1)c1ccccn1 [Methapyrilene hydrochloride]
4. COC(=O)Nc1nc2cc(Sc3ccccc3)ccc2[nH]1 [Fenbendazole]
5. Cc1onc(-c2ccccc2Cl)c1C(=O)N[C@@H]1C(=O)N2[C@@H]1SC(C)(C)[C@@H]2C(=O)O [Cloxacillin sodium salt]
6. COc1ccc(-c2ccc(=N)n(CCCC(=O)O)n2)cc1 [Gabazine bromide]
7. COc1ccc(CC2c3cc(OC)c(OC)cc3CC[N+]2(C)CCC(=O)OCCCCCOC(=O)CC[N+]2(C)CCc3cc(OC)c(OC)cc3C2Cc2ccc(OC)c(OC)c2)cc1OC (centres undefined) [Atracurium besylate]
8. CC(C)(C)C(=O)OCOC(=O)[C@@H]1N2C(=O)[C@@H](/N=C/N3CCCCCC3)[C@H]2SC1(C)C [Pivmecillinam hydrochloride]

Response line:
0.0607
0.304
0.332
0.352
0.344
0.341
0.336
0.344
